I'd appreciate it if you could supply remaining at 0.25 h, 1 μM values for the items below.
- Protocol: in vitro
- Condition Notes: mouse, microsomes, pH 7.4
Where a SMILES comes first, the peptide text is derived from it. [ ]: non-standard residue; d: D form. ξ: configuration not given here. ξTic = O=C(O)C1Cc2ccccc2CN1; ξOic = O=C(O)C1CC2CCCCC2N1
The reply should contain only the number, in %.

Complete the entry with remaining at 0.25 h, 1 μM for CC(=O)CC(c1ccccc1)c1c(O)c2ccccc2oc1=O (stereo not shown) [Warfarin, warfarin, reference compound]
86

Complete the entry with remaining at 0.25 h, 1 μM for CC(=O)NCC(=O)N1Cc2ccccc2CC1C(=O)N1C(C(=O)N[C@@H](CCCCN)C(=O)N2Cc3ccccc3CC2C(=O)N2C(C(=O)NCC(=O)N3Cc4ccccc4CC3C(=O)N3C(C(=O)N[C@@H](CCCCN)C(=O)N4Cc5ccccc5CC4C(=O)N[C@@H](CCCCN)C(=O)N[C@@H](CCCCN)C(=O)N[C@@H](CCCCN)C(=O)N[C@@H](CCCCN)C(N)=O)CC4CCCCC43)CC3CCCCC32)CC2CCCCC21 (stereo partly shown) [FKAB-1Ge] (Ac-G[ξTic][ξOic]K[ξTic][ξOic]G[ξTic][ξOic]K[ξTic]KKKK-NH2)
85

Complete the entry with remaining at 0.25 h, 1 μM for CC(C)NCC(O)COc1cccc2ccccc12 (stereo not shown) [Propranolol, propranolol, reference compound]
9

Complete the entry with remaining at 0.25 h, 1 μM for CC(=O)N[C@@H](Cc1ccccc1)C(=O)N1Cc2ccccc2CC1C(=O)N1C(C(=O)N[C@@H](CCCCN)C(=O)N2Cc3ccccc3CC2C(=O)N2C(C(=O)N[C@@H](Cc3ccccc3)C(=O)N3Cc4ccccc4CC3C(=O)N3C(C(=O)N[C@@H](CCCCN)C(=O)N4Cc5ccccc5CC4C(=O)N[C@@H](CCCCN)C(=O)N[C@@H](CCCCN)C(=O)N[C@@H](CCCCN)C(=O)N[C@@H](CCCCN)C(N)=O)CC4CCCCC43)CC3CCCCC32)CC2CCCCC21 (stereo partly shown) [FKAB-1Gc] (Ac-F[ξTic][ξOic]K[ξTic][ξOic]F[ξTic][ξOic]K[ξTic]KKKK-NH2)
86
